target_of_assay: Human Androgen Receptor (Homo sapiens, UniProt P10275)
Sequence (P10275 whole entry): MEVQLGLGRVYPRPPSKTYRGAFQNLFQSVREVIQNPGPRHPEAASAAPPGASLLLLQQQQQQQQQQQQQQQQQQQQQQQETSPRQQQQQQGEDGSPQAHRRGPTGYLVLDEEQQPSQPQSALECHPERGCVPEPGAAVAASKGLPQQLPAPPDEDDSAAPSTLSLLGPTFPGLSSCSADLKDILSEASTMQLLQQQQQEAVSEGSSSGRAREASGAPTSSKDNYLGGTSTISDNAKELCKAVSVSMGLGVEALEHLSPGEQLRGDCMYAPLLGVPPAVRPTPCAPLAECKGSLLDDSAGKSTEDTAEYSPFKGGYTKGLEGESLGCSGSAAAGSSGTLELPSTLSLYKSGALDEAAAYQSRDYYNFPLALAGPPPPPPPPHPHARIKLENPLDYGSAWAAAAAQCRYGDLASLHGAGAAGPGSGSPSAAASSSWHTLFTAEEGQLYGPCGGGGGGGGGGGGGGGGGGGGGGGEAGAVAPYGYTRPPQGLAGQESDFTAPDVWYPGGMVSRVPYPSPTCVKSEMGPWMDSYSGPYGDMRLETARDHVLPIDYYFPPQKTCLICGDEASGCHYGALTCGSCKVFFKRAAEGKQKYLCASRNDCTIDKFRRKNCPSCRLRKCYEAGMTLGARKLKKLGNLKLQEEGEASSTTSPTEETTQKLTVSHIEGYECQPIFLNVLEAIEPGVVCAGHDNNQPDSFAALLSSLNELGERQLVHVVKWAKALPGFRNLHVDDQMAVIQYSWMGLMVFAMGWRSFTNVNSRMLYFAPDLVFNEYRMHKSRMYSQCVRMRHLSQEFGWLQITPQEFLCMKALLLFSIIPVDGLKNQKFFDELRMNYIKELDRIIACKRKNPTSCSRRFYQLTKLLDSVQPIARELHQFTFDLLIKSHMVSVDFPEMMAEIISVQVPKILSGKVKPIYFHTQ
experimental_details: Androgen receptor binding assay (hydroxylapatite, [3H]R1881, cytosol of transfected HEK-293 cells)
setup_conditions: % RBA=100×IC50 R1881/IC50 compound, transfected cells
endpoint: Androgen Receptor Binding (%) Human RBA R1881 = 100
Hi! Could you send only the number? It should be in %, unit omitted.

# input Which Androgen Receptor Binding (%) Human RBA R1881 = 100 value is on record for CN(C)CC(NC1CCCCC1)c1cccc(OCC[C@]23CCC4C(CCC5CC(=O)CC[C@@]54C)C2CCC3O)c1 (stereo partly shown) ?
# output 125.7

# input How about this compound: CCC(NC1CCCCC1)c1cncc(OCC[C@]23CCC4C(CCC5=CC(=O)CC[C@@]54C)C2CCC3O)c1 (stereo partly shown)
# output 70.8

# input How about this compound: CCC(NC1CCOCC1)c1cccc(OCC[C@]23CCC4C(CCC5CC(=O)CC[C@@]54C)C2CC[C@@H]3O)c1 (stereo partly shown)
# output 211.3

# input How about this compound: CCC(NC1CCCC1)c1cc(F)cc(OCC[C@]23CCC4C(CCC5CC(=O)CC[C@@]54C)C2CC[C@@H]3O)c1 (stereo partly shown)
# output 141

* * *

Tested on: Shionogi mouse mammary carcinoma cells
experimental_details: Androgenic/antiandrogenic activity on DHT-stimulated Shionogi cell growth
Assay type: cell-based
setup_conditions: Mus musculus, read-out: Shionogi Antiandrogenic activity IC50 (nM), inhibition of DHT-stimulated Shionogi cell number
Exercise: state measured log10 IC50 for each of the molecules provided.
Values reflect log10 of reported IC50 (nM).

# input Which log10 IC50 value is on record for C[C@H](c1cccc(OCC[C@]23CCC4C(CCC5C[C@@H](O)CC[C@@]54C)C2CC[C@@H]3O)c1)N(C)C1CCCCC1 (some centres unmarked) ?
# output 0.75

# input How about this molecule: CC(C)CNC(C)(C)c1cccc(OCC[C@]23CCC4C(CCC5CC(=O)CC[C@@]54C)C2CC[C@@H]3O)c1 (some centres unmarked)
# output -0.40

# input How about this molecule: CCC(CC)NC(CC)c1cc(OCC[C@]23CCC4C(CCC5=CC(=O)CC[C@@]54C)C2CC[C@@H]3O)ccn1 (some centres unmarked)
# output -0.70

# input How about this molecule: Cc1ccc(CNC2CCCCC2)cc1OCC[C@]12CCC3C(CCC4CC(=O)CC[C@@]43C)C1CC[C@@H]2O (some centres unmarked)
# output 0.67

# input How about this molecule: CCCC(NC1CCCC1)c1cccc(OCC[C@]23CCC4C(CCC5CC(=O)CC[C@@]54C)C2CCC3=O)c1 (some centres unmarked)
# output 0.38

# input How about this molecule: CCCC(NC1CCCCC1)c1cccc(OCC[C@]23CCC4C(CCC5CC(=O)CC[C@@]54C)C2CC[C@@H]3O)c1 (some centres unmarked)
# output 0.20

# input How about this molecule: CCCCS(=O)(=O)Cc1cccc(OCC[C@]23CCC4C5CCC(=O)C=C5CCC4C2CC[C@@H]3O)c1 (some centres unmarked)
# output 1.51

# input How about this molecule: CCC(NC(C)CC(F)(F)F)c1cccc(OCC[C@]23CCC4C(CCC5CC(=O)CC[C@@]54C)C2CC[C@@H]3O)c1 (some centres unmarked)
# output 1.70

# input How about this molecule: COCC(NC1CCCCC1)c1cccc(OCC[C@]23CCC4C(CCC5CC(=O)CC[C@@]54C)C2CCC3O)c1 (some centres unmarked)
# output 0.08

# input How about this molecule: CC[C@H](NC1CCCCC1)c1cccc(OCC[C@]23CCC4C(CCC5CC(=O)CC[C@@]54C)C2CCC3O)c1 (some centres unmarked)
# output -0.19

# input How about this molecule: CC[C@@H](NC1CCCCC1)c1cccc(OCC[C@]23CCC4C(CCC5CC(=O)CC[C@@]54C)C2CCC3=O)c1 (some centres unmarked)
# output -0.29

# input How about this molecule: C#C[C@]1(O)CCC2C3CCC4CC(=O)CC[C@]4(C)C3CC[C@@]21CCOc1cccc(C(C)NC2CCCCC2)c1 (some centres unmarked)
# output 0.65

# input How about this molecule: CCC1COCC(c2cccc(OCC[C@]34CCC5C(CCC6CC(=O)CC[C@@]65C)C3CCC4O)c2)N1 (some centres unmarked)
# output 1.11

# input How about this molecule: CC(C)(c1cccc(OCC[C@]23CCC4C(CCC5CC(=O)CC[C@@]54C)C2CC[C@@H]3O)c1)N1CCCCC1 (some centres unmarked)
# output 1.18

# input How about this molecule: CCC[C@H](NC(CC)CC)c1cccc(OCC[C@]23CCC4C(CCC5CC(=O)CC[C@@]54C)C2CC[C@@H]3O)c1 (stereo in doubt)
# output -0.70

# input How about this molecule: CCCCC(NC1CCCCC1)c1cccc(OCC[C@]23CCC4C(CCC5CC(=O)CC[C@@]54C)C2CCC3O)c1 (some centres unmarked)
# output 0.62

# input How about this molecule: CCC(Cc1cccc(OCC[C@]23CCC4C5CCC(=O)C=C5CCC4C2CC[C@@H]3O)c1)NC1CCCC1 (some centres unmarked)
# output 1.28

# input How about this molecule: CCN(C1CCCCC1)[C@H](C)c1cccc(OCC[C@]23CCC4C(CCC5C[C@@H](O)CC[C@@]54C)C2CC[C@@H]3O)c1 (some centres unmarked)
# output 0.23

# input How about this molecule: C[C@@H]1C(NCc2cccc(OCC[C@]34CCC5C(CCC6CC(=O)CC[C@@]65C)C3CC[C@@H]4O)c2)CCC[C@@H]1C (some centres unmarked)
# output 0.60

# input How about this molecule: CCC(NC1CCCC1)c1cc(F)cc(OCC[C@]23CCC4C(CCC5CC(=O)CC[C@@]54C)C2CC[C@@H]3O)c1 (some centres unmarked)
# output 0.08

# input How about this molecule: O=C1C=C2CCC3C(CC[C@@]4(CCOc5cccc(CN6CCCCC6)c5)C3CC[C@@H]4O)C2CC1 (some centres unmarked)
# output 1.82

# input How about this molecule: CCC(NC1CCOCC1)c1cccc(OCC[C@]23CCC4C(CCC5=CC(=O)CC[C@@]54C)C2CCC3(C)O)c1 (some centres unmarked)
# output -0.30

# input How about this molecule: CCC(NC1CCCC1)c1cc(OCC[C@]23CCC4C(CCC5=CC(=O)CC[C@@]54C)C2CCC3O)ccn1 (some centres unmarked)
# output 0.15

# input How about this molecule: C[C@]1(O)CCC2C3CCC4=CC(=O)CCC4C3CC[C@@]21CCOc1cccc(CN2CCCCC2)c1 (some centres unmarked)
# output 0.98

# input How about this molecule: CCC(CC)NC(CC)c1cccc(OCC[C@]23CCC4C(CCC5CC(=O)CC[C@@]54C)C2CC[C@@H]3O)c1 (some centres unmarked)
# output 0.36

# input How about this molecule: CC(C)CC(C)NCc1cccc(OCC[C@]23CCC4C(CCC5CC(=O)CC[C@@]54C)C2CC[C@@H]3O)c1 (some centres unmarked)
# output 0.75

# input How about this molecule: CCCC(NC(CC)CC)c1cccc(OCC[C@]23CCC4C5CCC(=O)C=C5C(C)(C)CC4C2CCC3=O)c1 (some centres unmarked)
# output 1.21

# input How about this molecule: CCC(NC1CCSCC1)c1cccc(OCC[C@]23CCC4C(CCC5CC(=O)CC[C@@]54C)C2CCC3O)c1 (some centres unmarked)
# output 0.32

Source of measurements: patent US9090651B2
